target: Human immunodeficiency virus type 1 protease (Human immunodeficiency virus 1, UniProt Q72874, V82F); test: Inhibitory concentration against drug-resistant HIV(V82F) mutant protease
Measured property: IC50

smiles=CC(=O)N[C@@H](Cc1ccccc1)C(=O)N[C@H](C(=O)N[C@@H](Cc1ccccc1)[C@@H](O)C(=O)N[C@H]1Cc2ccc(cc2)OCCCNC(=O)[C@H](C(C)C)NC1=O)C(C)C measured_property=IC50 result="32 nM"

Shifting focus to the compound that follows.
[Q] For the compound shown here, CC(=O)N[C@@H](Cc1c[nH]c2ccccc12)C(=O)N[C@H](C(=O)N[C@@H](Cc1ccccc1)[C@@H](O)C(=O)N[C@H]1Cc2ccc(cc2)OCCCNC(=O)[C@H](C(C)C)NC1=O)C(C)C , give the reported IC50.
[A] 30 nM

* * *

molecular target: Human immunodeficiency virus type 1 protease (Human immunodeficiency virus 1, UniProt Q72874, G48V); assay: Inhibitory concentration against drug-resistant HIV(G48V) mutant protease
Measured property: pIC50
Interpret pIC50 as the negative base-10 log of the concentration measured in mol/L.

smiles=CC(=O)N[C@@H](Cc1ccccc1)C(=O)N[C@H](C(=O)N[C@@H](Cc1ccccc1)[C@@H](O)C(=O)N[C@H]1Cc2ccc(cc2)OCCCNC(=O)[C@H](C(C)C)NC1=O)C(C)C measured_property=pIC50 result_number=7.03

Shifting focus to the compound that follows.
[Q] For the compound shown here, CC(=O)N[C@@H](Cc1c[nH]c2ccccc12)C(=O)N[C@H](C(=O)N[C@@H](Cc1ccccc1)[C@@H](O)C(=O)N[C@H]1Cc2ccc(cc2)OCCCNC(=O)[C@H](C(C)C)NC1=O)C(C)C , give the reported pIC50.
[A] 7.15

* * *

molecular target: Human immunodeficiency virus type 1 protease (Human immunodeficiency virus 1); assay: Inhibitory concentration against TL3-resistant HIV(L241) mutant
Measured property: pIC50
Interpret pIC50 as the negative base-10 log of the concentration measured in mol/L.

[Q] For the molecule shown here, CC(=O)N[C@@H](Cc1ccc(O)cc1)C(=O)N[C@H](C(=O)N[C@@H](Cc1ccccc1)[C@@H](O)C(=O)N[C@H]1Cc2ccc(cc2)OCCCNC(=O)[C@H](C(C)C)NC1=O)C(C)C , give the reported pIC50.
[A] 7.15

* * *

target: Human immunodeficiency virus type 1 protease (Human immunodeficiency virus 1, UniProt Q72874, L63P); experiment: Inhibitory concentration against TL3-resistant HIV(L63P) mutant
Measured property: IC50 (nM)
Give your result in nM as a bare value.

[Q] For the compound shown here, CC(=O)N[C@@H](Cc1ccc(O)cc1)C(=O)N[C@H](C(=O)N[C@@H](Cc1ccccc1)[C@@H](O)C(=O)N[C@H]1Cc2ccc(cc2)OCCCNC(=O)[C@H](C(C)C)NC1=O)C(C)C , give the reported IC50.
[A] 70

* * *

biological target: Human immunodeficiency virus type 1 protease (Human immunodeficiency virus 1, UniProt Q72874, V82F); test: Inhibitory concentration against drug-resistant HIV(V82F) mutant
Measured property: pIC50
Interpret pIC50 as the negative base-10 log of the concentration measured in mol/L.

[Q] For the molecule shown here, CC(=O)N[C@@H](Cc1ccc(O)cc1)C(=O)N[C@H](C(=O)N[C@@H](Cc1ccccc1)[C@@H](O)C(=O)N[C@H]1Cc2ccc(cc2)OCCCNC(=O)[C@H](C(C)C)NC1=O)C(C)C , give the reported pIC50.
[A] 7.59

Measured values drawn from ChEMBL document CHEMBL1133785 for this set.
